Data provenance is patent US5334716A.

Study System: prostatic testosterone 5α-reductase
Measurement Description: Inhibitory activity on testosterone 5α-reductase in rats
Study Conditions: rat ventral prostate 5α-reductase suspension, 3H-testosterone 2.2×10^-9 M, 50 μM NADPH, pH 6.5, 37° C., 30 minutes
Provide the recorded IC50 for the entries that follow.
In your response, put the unit directly after the numeric value.

// field: IC50; key: "CC(C)Cc1ccc(C(Oc2cccc(C(=O)c3cc(CCCC(=O)O)c4ccccn34)c2)c2ccc(CC(C)C)cc2)cc1" ; value = 6.7 nM

// field: IC50; key: "CC(C)Cc1ccc(C(Nc2cccc(C(=O)c3cc(CCCC(=O)O)c4ccccn34)c2)c2ccc(CC(C)C)cc2)cc1" ; value = 2.3 nM

// field: IC50; key: CCCCC(Oc1ccc(C(=O)c2cc(CCCC(=O)O)n3ccccc23)cc1)c1ccc(CC(C)C)cc1 (centres unmarked) ; value = 1.8 nM

// field: IC50; key: CCC(Oc1ccc(C(=O)c2cc(CCCC(=O)O)n3ccccc23)cc1)c1ccc(CC(C)C)cc1 (centres unmarked) ; value = 0.55 nM

// field: IC50; key: "CC(C)Cc1ccc(C(Nc2ccc(C(=O)c3cc(CCCC(=O)O)n4ccccc34)cc2)c2ccc(CC(C)C)cc2)cc1" ; value = 0.44 nM
